- TARGET ENTITY: UDP-N-acetylbacillosamine N-acetyltransferase (Campylobacter jejuni subsp. jejuni serotype O:2 (strain ATCC 700819 /NCTC 11168), UniProt Q0P9D1)
- Sequence (Q0P9D1 whole entry): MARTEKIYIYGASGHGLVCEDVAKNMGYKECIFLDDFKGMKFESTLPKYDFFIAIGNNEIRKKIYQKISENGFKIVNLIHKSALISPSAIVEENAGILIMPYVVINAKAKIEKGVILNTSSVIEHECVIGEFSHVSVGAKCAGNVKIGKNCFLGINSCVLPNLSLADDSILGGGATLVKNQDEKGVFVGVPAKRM
- ASSAY PROTOCOL: Inhibition of Campylobacter jejuni NCTC 11168 PglD acetyltransferase expressed in Escherichia coli BL-21(DE3) strain (Stratagene) assessed as release of CoASH preincubated for 30 mins followed by addition of 300 uM AcCoA and 500 uM UDP-4-aminosugar as substrate by Ellman's method
Labelling: IC50 reported below 700 nM becomes rule met; at or above becomes rule not met.

Before answering, review these 5 worked examples.
CNc1nc(CCCc2ccccc2)nc2sc(C(=O)O)c(C)c12 rule not met
Cc1ccccc1CCNc1nc(CCc2ccccc2)nc2sc(C(=O)O)c(C)c12 rule met
CNc1nc(CCc2cccc(OC)c2)nc2sc(C(=O)O)c(C)c12 rule not met
Cc1c(C(=O)O)sc2nc(CCc3ccccc3)nc(NCCc3ccc4c(c3)OCO4)c12 rule met
Cc1c(C(=O)O)sc2nc(CCc3ccccc3)nc(NCCc3ccccc3F)c12 rule met

Asked: Does Cc1c(C(=O)O)sc2nc(CCc3ccccc3)nc(NCCN)c12 have IC50 strictly under 700 nM?
Given back: rule not met

Asked: Threshold test, IC50 < 700 nM: CNc1nc(CCc2cccc(OC)c2)nc2cc(C(=O)O)sc12
Given back: rule not met

Asked: Determine whether this compound shows IC50 lower than 700 nM (ties excluded): CNc1nc(CCc2ccccc2NC(C)=O)nc2sc(C(=O)O)c(C)c12
Given back: rule not met

Asked: Quick check: does CO[C@H](CNc1nc(C[C@@H](C)c2ccccc2)nc2sc(C(=O)O)c(C)c12)c1ccccc1 have IC50 under 700 nM?
Given back: rule met
